Test system: UO-31 renal
assay-name: NCI-60 one-dose screen, 48 h (100 = growth as untreated, 0 = no growth, -100 = all killed)
applied-conditions: 10 µM unless noted
Experimental: Growth inhibition of the UO-31 human tumor cell line is measured as a screen for anti-cancer activity. Cells are grown in 96 well plates and exposed to the test compound for 48 hours. Compounds are tested at a single concentration, which is 10^-5 M for most compounds. The reported endpoint is percent growth (GI% or GIPRCNT), where numbers from 0 - 100% represent growth inhibition, and numbers from -100% - 0 represent cell death. For example, a value of 40 represents 60% growth inhibition. […]
This is part of a sample that, as a whole, favours compounds with a hit. Of some 83,000 tested, about 20% had one in any assay.
Measured growth determines class: bin A (below 30%), bin B (30% to below 60%), bin C (60% or more)

Exercise: Which class is correct for the following molecule? CCOC(=O)c1cc2c(n1Cc1ccccc1OC)-c1oncc1CCC2
Key: bin B

Exercise: Looking at COc1cc(/C=C2\Oc3cc(OCCCN4CCCC4)ccc3C2=O)cc(OC)c1 , which class would you pick?
Key: bin B

Exercise: Sort COc1ccc(-c2cn[nH]c2-c2cc(OC)c(OC)c(OC)c2)cc1OCc1ccccc1 into one of the categories.
Key: bin A

Exercise: // bin(item) where item = O=c1oc2ccc(Br)cc2c(=O)n1-c1ccc(I)cc1F
Key: bin A

Exercise: # bin label for O=C1/C(=C/c2cccc(O)c2)COc2ccc(O)cc21
Key: bin C

Exercise: For COc1cccc(C(=O)NC(c2ccc(C)cc2)c2cc(Cl)c3cccnc3c2O)c1 (stereo not given) , which growth bin applies?
Key: bin A

Exercise: Category of CCCCC(O)(c1ccc(Cl)cc1)C(CN1CCOCC1)c1ccc(Cl)cc1 (stereo not given) :
Key: bin A

Exercise: Band for the recorded growth of CSc1nc2c(c(=O)[nH]1)N=C1c3ccccc3C(=O)C1C(c1ccccc1)N2 (stereo not given) ?
Key: bin C

Exercise: Which bin, given its growth, does COc1ccc(OC)c(NC(=O)/C(C#N)=C/c2ccco2)c1 occupy?
Key: bin C

----------
Tested on: RPMI-8226 leukemia
assay-name: NCI-60 one-dose screen, 48 h (100 = growth as untreated, 0 = no growth, -100 = all killed)
applied-conditions: 10 µM unless noted
Compounds without any hit were thinned out: in the full panel of roughly 83,000, 20% have a hit.
Mark fulfilled only for growth values smaller than 30%; exact matches and larger values are not fulfilled.

O=C(N/N=C/c1ccccc1O)C(=O)Nc1ccc(F)cc1 : not fulfilled
COc1ccccc1C1=C(Br)C(=O)c2nc(C)ccc2C1=O : not fulfilled
COC(=O)c1ccc(NC(=O)CSc2nc3ccccc3c(=O)n2-c2ccccc2)cc1 : not fulfilled
COc1cc(NC(=O)CCSc2nc3ccccc3c(=O)n2CCc2ccccn2)cc(OC)c1OC : not fulfilled
COc1ccc(Cn2c(Br)c3c(c2Br)-c2nc(N)sc2CC3)cc1 : fulfilled
COc1ccc(/C=C2\SC(=Nc3ccccc3)NC2=O)cc1 : fulfilled

Proceed to the following item.
Exercise: Consider O=C1c2cc(I)ccc2Oc2cc([N+](=O)[O-])ccc2N1c1ccc(Cl)cc1F . Does its growth lie strictly below 30%?
Key: not fulfilled

----------
Tested on: SR leukemia
assay-name: NCI-60 one-dose screen, 48 h
applied-conditions: 10 µM unless noted
About 83,000 compounds went through this panel and 20% of them were active in at least one assay; those are over-represented in the sample as a whole. Activity calls are given as the source filed them. How the source made its calls: active means growth percent below 10; inactive means the rest.
Thanks in advance; please answer with one of these: t for active, f for inactive

Some solved entries appear below for comparison.
Oc1c(CN2CCN(c3ccccc3F)CC2)cc(Br)c2cccnc12 : t
COC(=O)/C(CCC=C(C)C)=C1\[C@@H](OC(C)=O)C[C@@]2(C)[C@H]1C[C@@H](O)[C@H]1[C@@]3(C)CC[C@H](NC(=O)c4cnccn4)[C@@H](C)[C@@H]3CC[C@@]12C : f
CCN1C(=O)N(c2ccccc2)C2NN=c3s/c(=C4\C(=O)N(C(C)C)c5ccccc54)c(=O)n3C21 (stereo not drawn) : f
CCOC(=O)C1=C(C)c2ccc(OC)c(OC)c2C1 : f
COc1cc(/C=C2\CN(S(=O)(=O)c3ccccc3)C/C(=C\c3cc(CN4CCCC4)c(O)c(OC)c3)C2=O)cc(CN2CCCC2)c1O : f
CCCC(c1nnnn1C1CCCCC1)N1CCN(C(=O)c2ccco2)CC1 (stereo not drawn) : t
COc1cc(/C=C/C(=O)c2ccc(Nc3nc(NCCO)nc(N4CCOCC4)n3)cc2)cc(OC)c1OC : f
COc1cccc(-c2nn(C)c3sc(C(=O)NCCN4CCN(c5ccccc5F)CC4)cc23)c1 : t
COc1ccc(C2C3=C(COC3=O)N(CCO)c3cc4c(cc32)OCCO4)cc1 (stereo not drawn) : f
O=C1CCC(N2C(=O)c3cccc(NCCCCCCOc4ccc(Nc5nccc(Nc6ccccc6)n5)cc4)c3C2=O)C(=O)N1 (stereo not drawn) : f

Exercise: // param item: O=S(=O)(c1ccccc1)n1cc2c(c1-c1ccccc1)CCc1sc(Nc3ccccc3)nc1-2 ; yields the recorded call
Key: f

Exercise: For CSc1nc2c(c(=O)[nH]1)N=C1c3ccccc3C(=O)C1C(c1ccccc1)N2 (stereo not drawn) , which call appears in the assay record?
Key: t

Exercise: Hi, do you know how C=C[C@@H]1CCC/C=C/[C@@H]2C[C@H](O)C[C@H]2[C@H](O)/C=C/C(=O)O1 came out in this test?
Key: t

Exercise: Dear colleague, could you share the recorded outcome for CCN(CC)c1cc(C)c2cc(NC(=O)c3cccc(OC)c3)ccc2n1 when you have a moment?
Key: f

Exercise: # lookup: test call for Cc1ccc2nc(NC(=O)CSC(=S)N3CCN(c4ccccc4)CC3)sc2c1
Key: f

Exercise: Any idea what this test logged for CCCCN1CCN(c2ccc3nc(-c4ccc5nc(-c6ccc(OCC)cc6)[nH]c5c4)[nH]c3c2)CC1 ?
Key: t

Exercise: Record request — test call for CCN1CCN(c2cc(C)c3cc(NC(=O)c4ccc(OC)c(OC)c4)ccc3n2)CC1
Key: t

Exercise: Dear all, I need the recorded test outcome for O=C(Nc1nc2c(s1)CCc1c-2c(Br)n(Cc2ccccc2)c1Br)c1ccccc1 , thank you.
Key: f

----------
System: UACC-62 melanoma
assay-name: NCI-60 one-dose screen, 48 h (100 = growth as untreated, 0 = no growth, -100 = all killed)
applied-conditions: 10 µM unless noted
The panel holds about 83,000 compounds, 20% with a hit somewhere; the sample as a whole holds those more often.
Response field class: enum, chosen by comparing growth against lower (below 40%), middle (40% to below 80%), upper (80% or more)

COc1cc(/C=C2\CN(C)C/C(=C\c3cc(CN4CCCCC4)c(O)c(OC)c3)C2=O)cc(CN2CCCCC2)c1O : middle
O=C(Nc1ccc(I)cc1F)c1cc(Br)ccc1O : lower
CCCCC1CCc2cccc3c(SCC(=O)N(C)c4ccc(Cl)cc4)cc[n+]1c23 (stereo unspecified) : upper
CC(=O)c1ccc(Cc2ccc(C(C)=O)s2)s1 : upper
O=CCCCC(O)C=O (stereo unspecified) : upper

Exercise: read the entry CNCCNc1nc2ccccc2c2c(=O)c3cc(OC)ccc3sc12 and state which class it falls under.
Key: lower

Exercise: State the band of COc1ccc(Cn2c(Br)c3c(c2Br)-c2nc(NC(=O)c4ccc(OC)cc4)sc2CC3)cc1
Key: middle

Exercise: Could you tell me which band O=c1oc2ccc(Cl)cc2c(=O)n1-c1ccc(I)cc1F belongs to?
Key: lower

Exercise: Tag the class for O=C(Nc1ccc(N2CCNCC2)cn1)c1[nH]ncc1Nc1ncnc2sccc12
Key: middle

----------
System: HT29 colon
assay-name: NCI-60 one-dose screen, 48 h
applied-conditions: 10 µM unless noted
This is part of a sample that, as a whole, favours compounds with a hit. Of some 83,000 tested, about 20% had one in any assay. Calls of active or inactive are those of the source. How the source made its calls: active means growth percent below 10; inactive means the rest.
A correct response names exactly one class from label 1 (active), label 0 (inactive)

Reference set (6 entries):
CC(=O)n1cc(-c2c[nH]c3ccccc23)c(-c2ccc(Cl)cc2)n1 : label 0
CCN1C(=O)N(CC)C2C1NN=c1s/c(=C3\C(=O)N(C(C)C)c4ccccc43)c(=O)n12 (centres undefined) : label 1
Fc1cccc(COc2ccc(Nc3ncnc4onc(-c5ccccc5)c34)cc2)c1 : label 1
C#CCn1cc(C=C2C(=O)N(C)C(=O)N(C)C2=O)c2cc(Cl)ccc21 : label 0
CCCN1C(=O)N(CCC)C2C1NN=c1s/c(=C3\C(=O)N(C(C)C)c4ccccc43)c(=O)n12 (centres undefined) : label 0
CN(CCc1ccccc1)C(=S)N(C(=O)c1ccc([N+](=O)[O-])cc1)c1ccc(Cl)cc1 : label 0

Exercise: GET /call?item= O=C(Nc1ccc(N2CCNCC2)cn1)c1[nH]ncc1Nc1ncnc2sccc12 returns the recorded outcome of this test.
Key: label 1

Exercise: Field: outcome | Entry: CCOc1ccc(-c2nonc2NC(=O)c2cccc(C)c2)cc1OCC
Key: label 0

Exercise: I'd appreciate the recorded outcome for Cc1ccc(NC2=CC(=O)C(=O)c3ccccc32)c(C)c1 from this test.
Key: label 0

Exercise: State the result this test recorded for S=C1NC2(c3ccccc3)CCC(=S)N2c2ccccc21 (centres undefined) .
Key: label 0

Exercise: For COc1ccc(/C=C/C(=O)c2c(C)nc3ccccc3c2/C=C/c2ccccc2)c(OC)c1 , what call appears in the results of this test?
Key: label 0

Exercise: What is the recorded call for this molecule in the test? CCOC(=O)c1c2c(n3cccc(Cl)c13)C(=O)c1ncccc1C2=O
Key: label 0

Exercise: Outcome? COc1ccc(Cn2cc(Cn3c(=O)c(-c4nc5ccccc5[nH]4)cc4ccccc43)nn2)c(OC)c1OC
Key: label 1

Exercise: # lookup: test call for CCCCC(O)(c1ccc(Cl)cc1)C(CN1CCOCC1)c1ccc(Cl)cc1 (centres undefined)
Key: label 0

Exercise: What did the test return for COc1ccc(C2=C(c3cccc(OC)c3)C(=O)c3ccc(C)nc3C2=O)cc1 ?
Key: label 0

Exercise: Please indicate how the test categorized O=C(CN1C=NC2C(N3CCOCC3)=NC=NC21)c1ccc(Br)cc1 (centres undefined) .
Key: label 0
